experiment: chemical genetic growth profiling, strain panel (AID 1159580);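 note: tested at 20 µM; growth read once vehicle control cultures reached saturation at 30 °C; 1 = growth at the plate median or of vehicle wells; lower values mean less growth of the strain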; conditions: S. cerevisiae deletion strains, growth OD, locus YMR058W, strain fet3, active compounds read low
About 2,000 (36%) of roughly 5,500 compounds were called active. About 18% were inconclusive and are not listed. This is one part of the list.
Please respond with Satisfied when measured normalized growth is strictly beneath 1, and with Not satisfied in all other cases.

# COMPOUND, CLASS_LABEL
data = [
    ("CCN(CC)CCNC(=O)c1cc(S(C)(=O)=O)ccc1OC", "Satisfied"),
    ("O=C(O)c1ccccc1Nc1ccccc1", "Satisfied"),
]

Exercise: Could you please tell me whether normalized growth recorded for CC(=O)c1c(O)c(C)c(O)c2c1OC1=CC(=O)C(C(C)=O)C(=O)C12C (stereo unspecified) is less than 1?
Solution: Satisfied

Exercise: Could you please tell me whether normalized growth recorded for CO[C@H]1/C=C/O[C@@]2(C)Oc3c(C)c(O)c4c(O)c(c5c(nc6cc(C)ccn65)c4c3C2=O)NC(=O)/C(C)=C\C=C\[C@H](C)[C@H](O)[C@@H](C)C(O)[C@@H](C)[C@H](OC(C)=O)[C@@H]1C (stereo partly specified) is less than 1?
Solution: Not satisfied

Exercise: Could you please tell me whether normalized growth recorded for CC(C)=CCC/C(C)=C/CC/C(C)=C/CC/C(C)=C/CC/C(C)=C/CC/C(C)=C/CC/C(C)=C/CC/C(C)=C/CC/C(C)=C/CO is less than 1?
Solution: Not satisfied

Exercise: Could you please tell me whether normalized growth recorded for C=CC(C)(O)CC/C=C(\C)CCC=C(C)C (stereo unspecified) is less than 1?
Solution: Satisfied

Exercise: Could you please tell me whether normalized growth recorded for CN1C(CC(=O)c2ccccc2)CCCC1CC(O)c1ccccc1 (stereo unspecified) is less than 1?
Solution: Satisfied

Exercise: Could you please tell me whether normalized growth recorded for CC1(C)CCCC2(C)C3C1[C@@H](O)C2(C)C[C@H]3O (stereo partly specified) is less than 1?
Solution: Not satisfied

* * *

assay: chemical genetic growth profiling, strain panel (AID 1159580);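 note: tested at 20 µM; growth read once vehicle control cultures reached saturation at 30 °C; 1 = growth at the plate median or of vehicle wells; lower values mean less growth of the strain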; settings: S. cerevisiae deletion strains, growth OD, locus YGR078C, strain PAC10, active compounds read low
In all, about 5,500 compounds went through this assay and about 2,000 (36%) were called active. Roughly 18% stayed inconclusive and do not appear here. Some of the results follow.
RECORDED_ENDPOINT: normalized growth

# MOLECULE, normalized growth
measured = [
    ("CO[C@@]1(NC(=O)CSCC#N)C(=O)N2C(C(=O)O)=C(CSc3nnnn3C)CS[C@@H]21", "1 (inactive)"),
    ("CN1CCCC12NCCc1c2[nH]c2ccccc12 (stereo unspecified)", "0.993 (inactive)"),
    ("c1ccc2c(c1)CCc1c-2[nH]c2ccccc12", "0.732 (active)"),
    ("O=C(NC(=S)NCc1ccncc1)c1ccccc1", "1.01 (inactive)"),
    ("O=C(NC(=S)Nc1ccccn1)c1ccccc1", "0.962 (inactive)"),
]

Then there is this molecule:
Exercise: # input molecule: CC(C)c1ccc(NC(=S)NC(=O)c2ccc(C(F)(F)F)cc2)cc1 ; wanted: its normalized growth
Solution: 1.02 (inactive)

* * *

assay: chemical genetic growth profiling, strain panel (AID 1159580);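 note: tested at 20 µM; growth read once vehicle control cultures reached saturation at 30 °C; 1 = growth at the plate median or of vehicle wells; lower values mean less growth of the strain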; conditions: S. cerevisiae deletion strains, growth OD, locus YNL183C, strain NPR1, active compounds read low
The campaign covered roughly 5,500 compounds. About 2,000 (36%) were called active. Another 18% or so got no clear call; they are omitted. The list shows a part of the results.
RECORDED_ENDPOINT: normalized growth
I'd appreciate a reply containing only the number, no unit.

# MOLECULE, RECORDED_ENDPOINT, DATA_VALUE
records = [
    ("c1ccc2c(c1)cc1ccc3cccc4ccc2c1c34", "normalized growth", 0.884),
    ("NCCCC[C@H](N[C@@H](CCc1ccccc1)C(=O)O)C(=O)N1CCC[C@H]1C(=O)O", "normalized growth", 0.96),
    ("CCN(CC)CCNC(C(=O)OCCC(C)C)c1ccccc1 (stereo unspecified)", "normalized growth", 0.916),
    ("Cc1nn(Cc2ccc(C(=O)Sc3ccc(C(F)(F)F)cn3)o2)c(C)c1Br", "normalized growth", 0.777),
]

Then there is this molecule:
Exercise: # input molecule: C[C@H]1[C@H]2CCC3C4CC=C5C[C@@H](N(C)C)CC[C@]5(C)C4CC[C@@]32CN1C (stereo partly specified) ; wanted: its normalized growth
Solution: 0.973
